Entries and their MIC
# Tested on: Enterococcus faecium
# measurementDescription: Antimicrobial activity against vancomycin-resistant Enterococcus faecium clinical isolate after 20 hrs by 2 fold serial broth dilution method
# Assay type: functional
readoutLabel: MIC (µg/mL)

C=C/C(C)=C/[C@@]1(C)SC(=O)C(C)=C1O [THIOLACTOMYCIN] :: 128
Oc1ccc(/C=N/Nc2nccnc2Cl)c(O)c1 :: 32
OC[C@@H]1O[C@H](Oc2cccc(Cl)c2)[C@H](O)[C@H](O)[C@H]1O :: 256
O=C(N/N=C/c1ccc(O)c(O)c1O)c1ccc(Cl)cc1Cl :: 32
CCOC(=O)N/N=C/c1ccc(O)cc1O :: 256
NC(=O)C1(C(N)=O)OC1c1ccc(Cl)c(Cl)c1 (configuration not stated) :: 32
O=[N+]([O-])c1ccccc1N/N=C/c1ccc(O)c(O)c1 :: 256

Source listed as ChEMBL document CHEMBL1926539.
